So I've got a bunch of molecules here, and I need their ED50 values.
System: Mus musculus
Measurement protocol: Effective dose against pentylenetetrazole intoxicity in mice administered orally
Assay type: functional
Measurement context: Mus musculus, po; read-out: ED50
// units = mg/kg; emit number, no label

# query: ED50 of entry O=C1CN=C(c2ccccc2F)c2cc(Br)ccc2N1C1CCNCC1
2.7

# query: ED50 of entry O=C1CN=C(c2ccccc2)c2cc(Cl)ccc2N1C1CCNCC1
36.5

# query: ED50 of entry CN1CCC(N2C(=O)CN=C(c3ccccc3Cl)c3cc(F)ccc32)CC1
5.2

# query: ED50 of entry O=C1CN=C(c2ccccc2Cl)c2cc(Cl)ccc2N1C1CCCNC1 (centres undefined)
16.2

====

Tested target: GABA-A receptor; anion channel (Rattus norvegicus) (UniProt O09028+P15431+P18506+P18508+P19969+P20236+P23574+P23576+P28471+P28473+P30191+P62813+P63079+P63138+Q91ZM7+Q9ES14)
Measurement protocol: Binding constant was determined by displacing potential to [3H]-diazepam binding in cerebral cortex homogenates of rat
Type: tissue-based
Experimental readout: K2
A complete answer gives the number followed by the unit.

# query: K2 of entry CN1CCC(N2C(=O)CN=C(c3ccccc3F)c3cc(N(C)C)ccc32)CC1
8.3 µM

# query: K2 of entry CN1CCC(N2C(=O)CN=C(c3ccccc3F)c3ccc(F)cc32)CC1
0.44 µM

# query: K2 of entry CN1CCC(N2C(=O)CN=C(c3ccccc3Cl)c3cc(Cl)ccc32)CC1
0.021 µM
